- Test details: AUC in mouse at 10 mg/kg, PO
- Assay type: ADME, organism-based
- Design: dose 10 mg/kg
- Condition set: in vivo
Please mark true if the recorded AUC is equal to or greater than 20 µM·h, and false if it falls below.

query: Quick check, AUC >= 20 µM·h? COc1ccn2c(=O)n(-c3cccc(-c4ccc(C(N)=O)c5[nH]c6cc(C(C)(C)O)ccc6c45)c3C)c(=O)cc2c1
result: false

query: Thanks! And Cc1c(-c2ccc(C(N)=O)c3[nH]c4cc(C(C)(C)O)ccc4c23)cccc1-n1cnc2ccccc2c1=O ?
result: true

query: Then COc1cccn2c(=O)n(-c3cccc(-c4ccc(C(N)=O)c5[nH]c6cc(C(C)(C)O)ccc6c45)c3C)c(=O)cc12 ?
result: false

query: Now consider Cc1c(-c2ccc(C(N)=O)c3[nH]c4cc(C(C)(C)O)ccc4c23)cccc1-n1c(=O)cc2c(Cl)cccn2c1=O .
result: true

query: Repeat with Cc1c(-c2ccc(C(N)=O)c3[nH]c4cc(C(C)(C)O)ccc4c23)cccc1-n1c(=O)cc2c(F)cccn2c1=O
result: true
